Reported Oral DNAUC (AUCPO/Dose) values for a set of compounds
- TEST_NAME: In vivo pharmacokinetics in rats
- CONDITIONS_USED: male SD rats; oral 2 mg/kg

{"columns": ["COMPOUND", "Oral DNAUC (AUCPO/Dose), nM · h/mpk"],
 "data": [
  ["CCc1ccc([C@@H]2O[C@H](SC)[C@@H](O)[C@H](O)[C@H]2O)cc1Cc1ccc(C2=CCC(F)(F)CC2)cc1", 2320],
  ["CS[C@H]1O[C@@H](c2ccc(C)c(Cc3ccc(C4=CCC(F)(F)CC4)cc3)c2)[C@H](O)[C@@H](O)[C@@H]1O", 1013],
  ["CCOc1ccc(Cc2cc([C@@H]3O[C@H](SC)[C@@H](O)[C@H](O)[C@H]3O)ccc2Cl)cc1 [Sotagliflozin, reference compound]", 969],
  ["CS[C@H]1OC(c2ccc(Cl)c(Cc3ccc(C4=CCC(F)(F)CC4)cc3)c2)[C@H](O)[C@@H](O)[C@@H]1O (stereo partly shown)", 1823]
]}

---

- TEST_NAME: In vivo pharmacokinetics in rats
- CONDITIONS_USED: rat, plasma; male SD rats; intravenous 1 mg/kg or oral 2 mg/kg; read-out: T1/2 (half-life) (converted)
- Description: Study on the In Vivo Pharmacokinetics in Rats The purpose of the experiment: Male SD rats were used as test animals and were given a single administration to determine the plasma concentration of the compound and evaluate the pharmacokinetic behavior. Experimental method: Six healthy adult male SD rats were divided into 2 groups, with 3 rats in an intravenous injection group and 3 rats in an oral administration group. […]
Reported half-life values for a set of compounds

{"columns": ["COMPOUND", "half-life"],
 "data": [
  ["CCc1ccc([C@@H]2O[C@H](SC)[C@@H](O)[C@H](O)[C@H]2O)cc1Cc1ccc(C2=CCC(F)(F)CC2)cc1 [WXD010]", "270 min"],
  ["CCOc1ccc(Cc2cc([C@@H]3O[C@H](SC)[C@@H](O)[C@H](O)[C@H]3O)ccc2Cl)cc1 [Sotagliflozin, reference compound]", "76.2 min"],
  ["CS[C@H]1OC(c2ccc(Cl)c(Cc3ccc(C4=CCC(F)(F)CC4)cc3)c2)[C@H](O)[C@@H](O)[C@@H]1O (stereo partly shown) [WXD001]", "275 min"],
  ["CS[C@H]1O[C@@H](c2ccc(C)c(Cc3ccc(C4=CCC(F)(F)CC4)cc3)c2)[C@H](O)[C@@H](O)[C@@H]1O [WXD003]", "154 min"]
]}

---

- SYSTEM_TESTED: Human-SGLT2 (Homo sapiens, UniProt P31639)
- Sequence (P31639 whole entry): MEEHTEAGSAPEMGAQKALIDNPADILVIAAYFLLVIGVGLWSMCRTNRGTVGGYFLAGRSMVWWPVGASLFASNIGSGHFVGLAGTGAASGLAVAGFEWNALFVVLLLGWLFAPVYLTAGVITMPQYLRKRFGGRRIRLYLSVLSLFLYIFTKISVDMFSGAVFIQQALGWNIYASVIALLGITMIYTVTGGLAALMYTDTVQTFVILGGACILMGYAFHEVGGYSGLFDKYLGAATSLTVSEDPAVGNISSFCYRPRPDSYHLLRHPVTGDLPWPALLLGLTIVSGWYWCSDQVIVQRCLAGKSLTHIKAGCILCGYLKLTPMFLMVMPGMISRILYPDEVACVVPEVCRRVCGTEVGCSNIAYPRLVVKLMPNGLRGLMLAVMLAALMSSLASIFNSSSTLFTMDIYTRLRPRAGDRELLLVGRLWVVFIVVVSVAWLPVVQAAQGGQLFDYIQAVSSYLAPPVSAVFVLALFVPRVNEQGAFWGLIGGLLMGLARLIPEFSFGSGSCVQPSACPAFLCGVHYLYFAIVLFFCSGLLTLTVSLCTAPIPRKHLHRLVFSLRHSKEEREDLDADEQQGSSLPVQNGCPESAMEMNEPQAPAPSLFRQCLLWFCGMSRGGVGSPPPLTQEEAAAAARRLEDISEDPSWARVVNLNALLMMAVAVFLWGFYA
- TEST_NAME: SGLT2 glucose transport test ([14C]-labeled methyl a-D-glucopyranoside uptake)
- CONDITIONS_USED: cells stably expressing Human-SGLT2; 37° C., 2 hours

{"columns": ["MOLECULE", "OUTPUT_UNIT", "IC50"],
 "data": [
  ["CS[C@H]1OC(c2ccc(C)c(Cc3ccc(C4=CCOCC4)cc3)c2)[C@H](O)[C@@H](O)[C@@H]1O (some centres unmarked)", "nM", 1.49],
  ["CS[C@H]1O[C@@H](c2ccc(C)c(Cc3ccc(C4=CCOCC4)s3)c2)[C@H](O)[C@@H](O)[C@@H]1O", "nM", 1.35],
  ["CCc1ccc([C@@H]2O[C@H](SC)[C@@H](O)[C@H](O)[C@H]2O)cc1Cc1ccc(C2=CCC(F)(F)CC2)cc1", "nM", 2.49],
  ["CS[C@H]1O[C@@H](c2ccc(C)c(Cc3ccc(C4=CCC5(CC4)OCCO5)cc3)c2)[C@H](O)[C@@H](O)[C@@H]1O", "nM", 1.01],
  ["CS[C@H]1OC(c2ccc(Cl)c(Cc3ccc(C4=CCC(F)(F)CC4)cc3)c2)[C@H](O)[C@@H](O)[C@@H]1O (some centres unmarked)", "nM", 3.98],
  ["COc1ccc(C2O[C@H](SC)[C@@H](O)[C@H](O)[C@H]2O)cc1Cc1ccc(C2=CCC(F)(F)CC2)cc1 (some centres unmarked)", "nM", 5.4],
  ["CS[C@H]1OC(c2ccc(C)c(Cc3ccc(C4=CCCCC4)cc3)c2)[C@H](O)[C@@H](O)[C@@H]1O (some centres unmarked)", "nM", 1.78],
  ["CS[C@H]1OC(c2ccc(F)c(Cc3ccc(C4=CCC(F)(F)CC4)cc3)c2)[C@H](O)[C@@H](O)[C@@H]1O (some centres unmarked)", "nM", 4.68],
  ["CCOc1ccc(Cc2cc([C@@H]3O[C@H](SC)[C@@H](O)[C@H](O)[C@H]3O)ccc2Cl)cc1 [Sotagliflozin, reference compound]", "nM", 1.15],
  ["CS[C@H]1O[C@@H](c2ccc(C)c(Cc3ccc(C4=CCC(F)(F)CC4)cc3)c2)[C@H](O)[C@@H](O)[C@@H]1O", "nM", 2.04],
  ["CS[C@H]1O[C@@H](c2ccc(C)c(Cc3ccc(C4=CCC(F)(F)CC4)s3)c2)[C@H](O)[C@@H](O)[C@@H]1O", "nM", 1.02]
]}

---

- TEST_NAME: In vivo pharmacokinetics in rats
- CONDITIONS_USED: rat; male SD rats; single administration, intravenous 1 mg/kg or oral 2 mg/kg; plasma
Reported Cmax values for a set of molecules

{"columns": ["MOLECULE", "Cmax (nM)"],
 "data": [
  ["CCOc1ccc(Cc2cc([C@@H]3O[C@H](SC)[C@@H](O)[C@H](O)[C@H]3O)ccc2Cl)cc1 [Sotagliflozin, reference compound]", 364],
  ["CCc1ccc([C@@H]2O[C@H](SC)[C@@H](O)[C@H](O)[C@H]2O)cc1Cc1ccc(C2=CCC(F)(F)CC2)cc1", 356],
  ["CS[C@H]1OC(c2ccc(Cl)c(Cc3ccc(C4=CCC(F)(F)CC4)cc3)c2)[C@H](O)[C@@H](O)[C@@H]1O (stereo partly shown)", 410],
  ["CS[C@H]1O[C@@H](c2ccc(C)c(Cc3ccc(C4=CCC(F)(F)CC4)cc3)c2)[C@H](O)[C@@H](O)[C@@H]1O", 391]
]}

---

Reported IC50 values for a set of molecules
- SYSTEM_TESTED: Human-SGLT1 (Homo sapiens)
- Sequence (P13866 whole entry): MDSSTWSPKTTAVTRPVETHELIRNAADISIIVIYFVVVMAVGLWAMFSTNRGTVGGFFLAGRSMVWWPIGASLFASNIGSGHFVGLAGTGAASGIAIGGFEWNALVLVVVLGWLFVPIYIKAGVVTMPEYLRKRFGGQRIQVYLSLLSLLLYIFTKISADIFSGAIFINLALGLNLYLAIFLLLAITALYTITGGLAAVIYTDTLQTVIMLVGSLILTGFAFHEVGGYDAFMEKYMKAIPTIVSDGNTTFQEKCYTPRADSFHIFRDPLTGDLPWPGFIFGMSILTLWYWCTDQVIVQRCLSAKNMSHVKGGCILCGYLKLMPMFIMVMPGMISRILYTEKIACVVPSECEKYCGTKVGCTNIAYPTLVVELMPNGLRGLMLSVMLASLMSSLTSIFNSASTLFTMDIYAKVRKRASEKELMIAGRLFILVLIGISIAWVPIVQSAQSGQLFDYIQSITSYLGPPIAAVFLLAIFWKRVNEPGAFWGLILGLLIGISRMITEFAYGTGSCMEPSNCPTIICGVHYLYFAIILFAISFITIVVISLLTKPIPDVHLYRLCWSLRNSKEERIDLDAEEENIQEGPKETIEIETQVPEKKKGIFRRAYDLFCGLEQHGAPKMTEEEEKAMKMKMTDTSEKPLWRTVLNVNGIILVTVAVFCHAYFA
- TEST_NAME: SGLT1 glucose transport test ([14C]-labeled methyl a-D-glucopyranoside uptake)
- CONDITIONS_USED: cells stably expressing Human-SGLT1; 37° C., 2 hours
ASSAY_METRIC: IC50 (nM)

{"columns": ["MOLECULE", "SYSTEM_TESTED", "ASSAY_METRIC", "ENDPOINT_RESULT"],
 "data": [
  ["CS[C@H]1OC(c2ccc(Cl)c(Cc3ccc(C4=CCC(F)(F)CC4)cc3)c2)[C@H](O)[C@@H](O)[C@@H]1O (stereo partly shown)", "Human-SGLT1 (Homo sapiens)", "IC50", 210],
  ["CS[C@H]1OC(c2ccc(C)c(Cc3ccc(C4=CCOCC4)cc3)c2)[C@H](O)[C@@H](O)[C@@H]1O (stereo partly shown)", "Human-SGLT1 (Homo sapiens)", "IC50", 14.1],
  ["CS[C@H]1O[C@@H](c2ccc(C)c(Cc3ccc(C4=CCC5(CC4)OCCO5)cc3)c2)[C@H](O)[C@@H](O)[C@@H]1O", "Human-SGLT1 (Homo sapiens)", "IC50", 55.6],
  ["CS[C@H]1O[C@@H](c2ccc(C)c(Cc3ccc(C4=CCC(F)(F)CC4)s3)c2)[C@H](O)[C@@H](O)[C@@H]1O", "Human-SGLT1 (Homo sapiens)", "IC50", 39.2],
  ["CS[C@H]1O[C@@H](c2ccc(C)c(Cc3ccc(C4=CCOCC4)s3)c2)[C@H](O)[C@@H](O)[C@@H]1O", "Human-SGLT1 (Homo sapiens)", "IC50", 30.1],
  ["CS[C@H]1OC(c2ccc(F)c(Cc3ccc(C4=CCC(F)(F)CC4)cc3)c2)[C@H](O)[C@@H](O)[C@@H]1O (stereo partly shown)", "Human-SGLT1 (Homo sapiens)", "IC50", 233],
  ["CCc1ccc([C@@H]2O[C@H](SC)[C@@H](O)[C@H](O)[C@H]2O)cc1Cc1ccc(C2=CCC(F)(F)CC2)cc1", "Human-SGLT1 (Homo sapiens)", "IC50", 14.8],
  ["CS[C@H]1OC(c2ccc(C)c(Cc3ccc(C4=CCCCC4)cc3)c2)[C@H](O)[C@@H](O)[C@@H]1O (stereo partly shown)", "Human-SGLT1 (Homo sapiens)", "IC50", 21.9],
  ["COc1ccc(C2O[C@H](SC)[C@@H](O)[C@H](O)[C@H]2O)cc1Cc1ccc(C2=CCC(F)(F)CC2)cc1 (stereo partly shown)", "Human-SGLT1 (Homo sapiens)", "IC50", 17.2],
  ["CS[C@H]1O[C@@H](c2ccc(C)c(Cc3ccc(C4=CCC(F)(F)CC4)cc3)c2)[C@H](O)[C@@H](O)[C@@H]1O", "Human-SGLT1 (Homo sapiens)", "IC50", 49.5]
]}
